experiment: Highest frequency of acute liver toxicity observed during clinical trials, expressed as a percentage. [column '% AIGUE' in source]; conditions: human

{"Compound": "CC#C[C@]1(O)CC[C@H]2[C@@H]3CCC4=CC(=O)CCC4=C3[C@@H](c3ccc(N(C)C)cc3)C[C@@]21C", "Hepatotoxicity (acute) / %": 0}
{"Compound": "O=C(COCCOCCOCC(=O)Nc1c(I)cc(I)c(C(=O)O)c1I)Nc1c(I)cc(I)c(C(=O)O)c1I", "Hepatotoxicity (acute) / %": 0}
{"Compound": "CNC1(c2ccccc2Cl)CCCCC1=O (configuration not stated)", "Hepatotoxicity (acute) / %": 0}
{"Compound": "CC1(C)S[C@@H]2[C@H](NC(=O)[C@H](C(=O)O)c3ccsc3)C(=O)N2[C@H]1C(=O)O.O=C(O)[C@H]1/C(=C/CO)O[C@@H]2CC(=O)N21", "Hepatotoxicity (acute) / %": 0}
{"Compound": "CNNCc1ccc(C(=O)NC(C)C)cc1", "Hepatotoxicity (acute) / %": 1}
{"Compound": "CN(C)C(=O)OC1N=C(c2ccccc2)c2cc(Cl)ccc2N(C)C1=O (configuration not stated)", "Hepatotoxicity (acute) / %": 0}
{"Compound": "CC1(C)S[C@@H]2[C@H](NC(=O)[C@H](N)c3ccccc3)C(=O)N2[C@H]1C(=O)OCOC(=O)[C@@H]1N2C(=O)C[C@H]2S(=O)(=O)C1(C)C", "Hepatotoxicity (acute) / %": 0.2}

----------
Reported Hepatotoxicity (moderate) values for the following compounds.
test: Highest frequency of moderate liver toxicity observed during clinical trials, expressed as a percentage. [column '% BIOL' in source]; conditions: human, Liver
Measurement Kind: Hepatotoxicity (moderate) (%)

{"Compound": "CCOC(=O)C1=C(COCCN)NC(C)=C(C(=O)OC)C1c1ccccc1Cl (centres undefined)", "Measurement Kind": "Hepatotoxicity (moderate)", "Unit Of Measurement": "%", "Readout Number": 12.8}
{"Compound": "CC1(C)NC(=O)N(c2ccc([N+](=O)[O-])c(C(F)(F)F)c2)C1=O [NILUTAMIDE]", "Measurement Kind": "Hepatotoxicity (moderate)", "Unit Of Measurement": "%", "Readout Number": 8}
{"Compound": "O=C(O)C[C@H](O)C[C@H](O)/C=C/c1c(C2CC2)nc2ccccc2c1-c1ccc(F)cc1", "Measurement Kind": "Hepatotoxicity (moderate)", "Unit Of Measurement": "%", "Readout Number": 1.7}
{"Compound": "CN(C)C(=N)N=C(N)N", "Measurement Kind": "Hepatotoxicity (moderate)", "Unit Of Measurement": "%", "Readout Number": 0}
{"Compound": "CN(C)CCOC(c1ccccc1)c1ccccc1 [DIPHENHYDRAMINE]", "Measurement Kind": "Hepatotoxicity (moderate)", "Unit Of Measurement": "%", "Readout Number": 1.4}
{"Compound": "N[C@@H]1C[C@H]1c1ccccc1.N[C@H]1C[C@@H]1c1ccccc1", "Measurement Kind": "Hepatotoxicity (moderate)", "Unit Of Measurement": "%", "Readout Number": 0}
{"Compound": "CCc1c2c(nc3ccc(OC(=O)N4CCC(N5CCCCC5)CC4)cc13)-c1cc3c(c(=O)n1C2)COC(=O)[C@]3(O)CC", "Measurement Kind": "Hepatotoxicity (moderate)", "Unit Of Measurement": "%", "Readout Number": 13.3}
{"Compound": "Cc1ncc([N+](=O)[O-])n1CCO", "Measurement Kind": "Hepatotoxicity (moderate)", "Unit Of Measurement": "%", "Readout Number": 25}
{"Compound": "Cc1cnc(NC(=O)C2=C(O)c3ccccc3S(=O)(=O)N2C)s1", "Measurement Kind": "Hepatotoxicity (moderate)", "Unit Of Measurement": "%", "Readout Number": 11.5}

----------
conditions: human
Where a SMILES comes first, the peptide text is derived from it. Bridges are numbered along the chain shown (N, C = ends). [ ]: non-standard residue; d: D form. The star is where a group is joined. NMePhe(4-NMe2) = CN[C@@H](Cc1ccc(N(C)C)cc1)C(=O)O; Pip(4-oxo) = O=C1CCN[C@H](C(=O)O)C1; Picolinoyl(3-OH) = O=C(c1ncccc1O)*; Phg = N[C@H](C(=O)O)c1ccccc1; dAbu = CC[C@@H](N)C(=O)O
Measurement Kind: Hepatotoxicity (association with vascular disease)

{"Compound": "O=NN(CCCl)C(=O)NCCCl", "Result": 10}
{"Compound": "C=COCC(F)(F)F", "Result": 0}
{"Compound": "O=c1[nH]cnc2c1ncn2[C@H]1CC[C@@H](CO)O1", "Result": 0}
{"Compound": "COc1ccccc1Oc1c(NS(=O)(=O)c2ccc(C(C)(C)C)cc2)nc(-c2ncccn2)nc1OCCO", "Result": 0}
{"Compound": "FC(F)OC(Cl)C(F)(F)F (configuration not stated)", "Result": 0}
{"Compound": "CC(C)NNC(=O)COc1ccc(Cl)cc1 [IPROCLOZIDE]", "Result": 0}
{"Compound": "CC(Cc1ccccc1)NN (configuration not stated)", "Result": 0}
{"Compound": "COc1ccc2c(C(=O)c3ccc(Cl)cc3)c(C)n(CC(=O)O)c2c1", "Result": 0}
{"Compound": "CCCc1nn(C)c2c(=O)[nH]c(-c3cc(S(=O)(=O)N4CCN(C)CC4)ccc3OCC)nc12", "Result": 0}
{"Compound": "CC1COc2c(N3CCN(C)CC3)c(F)cc3c(=O)c(C(=O)O)cn1c23 (configuration not stated)", "Result": 0}
{"Compound": "NCCCC[C@H](N[C@@H](CCc1ccccc1)C(=O)O)C(=O)N1CCC[C@H]1C(=O)O [LISINOPRIL ANHYDROUS]", "Result": 0}
{"Compound": "CCN(CC)CCNC(=O)c1cc(Cl)c(N)cc1OC [METOCLOPRAMIDE]", "Result": 1}
{"Compound": "CC(C)(C)NC(=O)[C@@H]1C[C@@H]2CCCC[C@@H]2CN1C[C@@H](O)[C@H](Cc1ccccc1)NC(=O)[C@H](CC(N)=O)NC(=O)c1ccc2ccccc2n1", "Result": 0}
{"Compound": "CC(NC(C)(C)C)C(=O)c1cccc(Cl)c1 (configuration not stated)", "Result": 0}
{"Compound": "CC[C@H]1NC(=O)[C@@H](NC(=O)c2ncccc2O)[C@@H](C)OC(=O)[C@H](c2ccccc2)NC(=O)[C@@H]2CC(=O)CCN2C(=O)[C@H](Cc2ccc(N(C)C)cc2)N(C)C(=O)[C@@H]2CCCN2C1=O [PRISTINAMYCIN 1A] ({Picolinoyl(3-OH)}-T[dAbu]P[NMePhe(4-NMe2)][Pip(4-oxo)][Phg]; ester 1-C)", "Result": 0}
{"Compound": "Nc1nc(F)nc2c1ncn2[C@@H]1O[C@H](CO)[C@@H](O)[C@@H]1O", "Result": 0}
{"Compound": "CN1CCN(CC(=O)N2c3ccccc3C(=O)Nc3cccnc32)CC1 [PIRENZEPINE]", "Result": 0}

----------
conditions: human, serum

{"Molecule": "OCCOCCN1CCN(C2=Nc3ccccc3Sc3ccccc32)CC1", "Hepatotoxicity (acute)": 1}
{"Molecule": "CCN1CCCC1CNC(=O)c1cc(S(=O)(=O)CC)c(N)cc1OC (stereo not given) [AMISULPRIDE]", "Hepatotoxicity (acute)": 0}
{"Molecule": "O=C(COCC(=O)Nc1c(I)cc(I)c(C(=O)O)c1I)Nc1c(I)cc(I)c(C(=O)O)c1I", "Hepatotoxicity (acute)": 0}
{"Molecule": "C[C@]12CCC(=O)C=C1CC[C@@H]1[C@@H]2C(=O)C[C@@]2(C)[C@H]1CC[C@]2(O)C(=O)CO", "Hepatotoxicity (acute)": 0}
{"Molecule": "C[C@@H]1O[C@@H]1P(=O)(O)O", "Hepatotoxicity (acute)": 1}

----------
conditions: human, serum
The reader will find reported Hepatotoxicity (acute) values listed item by item below.

{"Compound": "CCCCN/C(=C1/C=C(Cl)C=CC1=O)c1ccccc1Cl", "Hepatotoxicity (acute)": 1}
{"Compound": "OCc1cc(C(O)CNCCCCCCOCCCCc2ccccc2)ccc1O (stereo unspecified) [SALMETEROL]", "Hepatotoxicity (acute)": 0}
{"Compound": "CC(=O)O[C@H]1C(=O)[C@@]2(C)[C@H]([C@H](OC(=O)c3ccccc3)[C@]3(O)C[C@H](OC(=O)[C@H](O)[C@@H](NC(=O)c4ccccc4)c4ccccc4)C(C)=C1C3(C)C)[C@]1(OC(C)=O)CO[C@@H]1C[C@@H]2O [PACLITAXEL]", "Hepatotoxicity (acute)": 5}
{"Compound": "NCCC(O)(P(=O)(O)O)P(=O)(O)O [PAMIDRONIC ACID]", "Hepatotoxicity (acute)": 0}
{"Compound": "NCC(CC(=O)O)c1ccc(Cl)cc1 (stereo unspecified) [BACLOFEN]", "Hepatotoxicity (acute)": 3}
{"Compound": "O=c1cc[nH]c(=S)[nH]1 [THIOURACIL]", "Hepatotoxicity (acute)": 5}

Attribution: ChEMBL document CHEMBL3137667
